Origin of measurements: patent US10975063B2

Kindly state fold induction at 5 µM for each of the entries shown.
Tested on: LMNA aberrant splicing (MutLMNA-luc cell line)
Assay: Luciferase assay for repression of LMNA aberrant splicing in stable 293 MutLMNA-luc cell line (293FLP LMNA LUC cells #8)
Format: cell-based
Details: 48 hours, compared to control untreated MutLMNA-luc cell line, read-out: Increase of luciferase activity
Text: Advantage has been taken of the luciferase system. The luciferase assay is an extremely sensitive and rapid assay. Linear results are seen over at least eight orders of magnitude of enzyme concentration. Moreover, the luciferase assay is well suited for high-throughput applications. […]

Input: Value lookup for fold induction at 5 µM; key = FC(F)(F)c1ccc(Nc2ccc3ccccc3n2)nc1 [Compound 34]
Output: 4.18

Input: Also need FC(F)(F)c1ccc(Nc2ccc3ncccc3c2)nc1 [Compound 15] , thanks.
Output: 2.17

Input: What do we get for COC(=O)c1ccc(Nc2nc3ccccc3cc2C)nc1 [Compound 61] ?
Output: 2.04

Input: Same read-out for c1ccc(Nc2cnc3ccccc3n2)nc1 [Compound 135, N-(pyridin-2-yl)quinoxalin-2-amine] ?
Output: 4.58

Input: Let us now turn to c1ccc(Nc2ccc3ccccc3n2)nc1 [Compound 4, Pyridin-2-yl-quinolin-2-yl-amine]
Output: 4.43

Input: Now consider Fc1ccc(Nc2ccc3ccccc3n2)nc1 [Compound 41, N-(5-fluoropyridin-2-yl)quinolin-2-amine] .
Output: 3.32

Input: Would you mind doing c1ccc2nc(Nc3cnccn3)ccc2c1 [Compound 113, N-(pyrazin-2-yl)quinolin-2-amine] as well?
Output: 2.28

Input: Same for c1ccc2nc(Nc3ccncc3)ccc2c1 [Compound 120, N-(pyridin-4-yl)quinolin-2-amine]
Output: 2.38

Input: One more compound: O=C(O)c1ccnc(Nc2ccc3cccc(Cl)c3n2)c1 [Compound 5]
Output: 2.02

Input: And for Cc1ccnc(Nc2ccc3c(N(C)C)ccnc3c2)c1 [Compound 147] ?
Output: 2.94

Input: Entry to check: COc1ccnc2cc(Nc3ccccn3)ccc12 [Compound 145]
Output: 3.87

Input: Follow-up item: c1cnc(Nc2cnc3ccccc3n2)nc1 [Compound 142, N-(pyrimidin-2-yl)quinoxalin-2-amine]
Output: 4.47

Input: Cool, now Cc1ccnc(Nc2cnc3ccccc3n2)c1 [Compound 136]
Output: 5.2

Input: // repeat for Cc1ccc(Nc2ccc3cccc(Cl)c3n2)nc1 [Compound 36] and report
Output: 3.06

Input: How about FC(F)(F)c1cccc(Nc2ccc3ccccc3n2)n1 [Compound 42] ?
Output: 3.87

Input: Can you handle Cc1cccc(Nc2cnc3ccccc3c2)n1 [Compound 105, N-(6-methylpyridin-2-yl)quinolin-3-amine] next?
Output: 3.25

Input: Queued: Cc1cc(OC(F)(F)F)ccc1Nc1ccc2ccccc2n1 [Compound 82]
Output: 3.41

Input: Would you mind doing Clc1ccc2nc(Nc3cnccn3)ccc2c1 [Compound 109] as well?
Output: 2.79

Input: And COc1cccnc1Nc1ccc2ccccc2n1 [Compound 38] ?
Output: 5.81

---

system: LMNA aberrant splicing (MutLMNA-luc cell line); experiment: Luciferase assay for repression of LMNA aberrant splicing in stable 293 MutLMNA-luc cell line (293FLP LMNA LUC cells #8); format: cell-based; conditions: 48 hours, compared to control untreated MutLMNA-luc cell line, read-out: Increase of luciferase activity
Label condition met when fold induction at 5 µM is at or above 3; otherwise label condition not met.

Input: Has `Cc1cccc(Nc2ccc3ccccc3n2)n1` a recorded fold induction at 5 µM greater than or equal to 3?
Output: condition met

Input: One more compound: `Cc1cccnc1Nc1ccc2ccccc2n1`
Output: condition met

Input: Also `N#Cc1ccnc(Nc2ccc3ccccc3n2)c1` , if possible.
Output: condition not met

Input: Would you kindly repeat that for `c1ccc(Oc2ccc(Nc3ccc4ccccc4n3)cc2)cc1` ?
Output: condition not met

Input: Next compound: `Cc1ccnc(Nc2ccc3cc(Cl)ccc3n2)c1`
Output: condition met

Input: Next record, please: `Fc1cccc(Nc2ccc3ccccc3n2)c1`
Output: condition not met
